Would you kindly list residual activity for each of these compounds?
experimental-target: FER (human) (UniProt P16591)
Sequence (P16591 whole entry, looked up): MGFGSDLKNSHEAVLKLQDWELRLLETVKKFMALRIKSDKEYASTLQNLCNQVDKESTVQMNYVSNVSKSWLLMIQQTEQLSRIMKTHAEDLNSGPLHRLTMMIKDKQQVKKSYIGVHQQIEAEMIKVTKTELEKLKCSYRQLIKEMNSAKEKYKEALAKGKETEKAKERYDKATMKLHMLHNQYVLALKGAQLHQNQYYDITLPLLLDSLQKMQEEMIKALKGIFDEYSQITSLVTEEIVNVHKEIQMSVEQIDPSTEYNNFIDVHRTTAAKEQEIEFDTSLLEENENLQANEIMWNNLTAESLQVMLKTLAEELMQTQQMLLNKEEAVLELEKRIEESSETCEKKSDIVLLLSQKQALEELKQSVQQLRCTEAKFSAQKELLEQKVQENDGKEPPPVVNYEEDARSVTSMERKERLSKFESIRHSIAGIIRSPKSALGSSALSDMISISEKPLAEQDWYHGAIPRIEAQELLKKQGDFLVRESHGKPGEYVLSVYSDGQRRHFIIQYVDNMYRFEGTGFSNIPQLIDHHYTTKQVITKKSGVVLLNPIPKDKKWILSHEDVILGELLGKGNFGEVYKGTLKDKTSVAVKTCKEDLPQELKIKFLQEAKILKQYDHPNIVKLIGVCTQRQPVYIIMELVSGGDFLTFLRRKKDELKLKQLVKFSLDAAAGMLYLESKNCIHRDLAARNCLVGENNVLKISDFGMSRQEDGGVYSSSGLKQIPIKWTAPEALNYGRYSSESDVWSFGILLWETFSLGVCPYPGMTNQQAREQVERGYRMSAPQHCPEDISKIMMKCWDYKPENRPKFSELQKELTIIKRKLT
measurement-notes: radiometric filter-binding kinase assay, Kinase HotSpot
applied-conditions: compound 0.5 µM; ATP 10 µM
One number for each entry, in %.

# example entries with known answers
>>> quantitative_result("CC(=O)c1ccc(N2CCOCC2)cc1O")
90.4
>>> quantitative_result("O=C1Nc2ccc(Cl)cc2/C1=C/c1cc(Cl)c(O)c(Cl)c1")
92.1

Exam item: If you can, please state the reported residual activity value of O=c1cc(N2CCOCC2)oc2c1ccc1ccccc12 .
Marked response: 91.2

* * *

Would you kindly list residual activity for each of these compounds?
experimental-target: UniProt Q96RG2
Sequence (Q96RG2 whole entry, looked up): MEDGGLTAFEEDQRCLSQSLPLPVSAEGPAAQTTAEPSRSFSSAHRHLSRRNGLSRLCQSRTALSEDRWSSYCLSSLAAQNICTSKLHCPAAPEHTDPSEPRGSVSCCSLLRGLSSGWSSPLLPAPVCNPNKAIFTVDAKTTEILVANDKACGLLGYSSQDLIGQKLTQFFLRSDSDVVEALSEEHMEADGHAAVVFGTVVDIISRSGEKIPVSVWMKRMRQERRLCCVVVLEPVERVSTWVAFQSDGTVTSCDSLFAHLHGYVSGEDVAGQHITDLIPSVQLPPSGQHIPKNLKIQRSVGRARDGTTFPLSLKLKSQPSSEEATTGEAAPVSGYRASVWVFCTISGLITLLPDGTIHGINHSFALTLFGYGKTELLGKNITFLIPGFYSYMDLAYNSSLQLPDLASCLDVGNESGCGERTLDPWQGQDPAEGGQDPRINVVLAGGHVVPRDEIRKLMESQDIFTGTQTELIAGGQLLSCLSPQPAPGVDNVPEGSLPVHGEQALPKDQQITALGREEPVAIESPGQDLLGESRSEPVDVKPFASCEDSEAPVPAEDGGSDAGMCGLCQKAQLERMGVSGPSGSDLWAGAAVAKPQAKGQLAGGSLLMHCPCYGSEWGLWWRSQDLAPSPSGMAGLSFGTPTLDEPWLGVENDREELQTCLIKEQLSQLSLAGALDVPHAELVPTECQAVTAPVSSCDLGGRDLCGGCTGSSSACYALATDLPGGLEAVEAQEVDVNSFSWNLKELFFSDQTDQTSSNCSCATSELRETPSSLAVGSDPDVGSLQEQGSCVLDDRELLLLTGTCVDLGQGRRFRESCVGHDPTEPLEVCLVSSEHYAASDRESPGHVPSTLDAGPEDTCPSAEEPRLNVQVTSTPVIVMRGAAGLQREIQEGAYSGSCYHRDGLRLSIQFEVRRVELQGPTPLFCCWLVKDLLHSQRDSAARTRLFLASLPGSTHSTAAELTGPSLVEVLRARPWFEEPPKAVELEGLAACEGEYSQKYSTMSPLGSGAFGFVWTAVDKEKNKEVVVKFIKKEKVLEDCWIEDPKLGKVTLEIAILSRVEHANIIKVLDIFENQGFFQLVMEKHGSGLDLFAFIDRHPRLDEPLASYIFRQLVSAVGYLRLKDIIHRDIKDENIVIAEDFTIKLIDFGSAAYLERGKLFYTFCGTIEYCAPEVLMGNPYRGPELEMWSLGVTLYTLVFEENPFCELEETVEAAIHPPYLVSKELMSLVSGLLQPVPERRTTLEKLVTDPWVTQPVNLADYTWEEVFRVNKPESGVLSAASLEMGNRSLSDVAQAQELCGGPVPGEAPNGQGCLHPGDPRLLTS
measurement-notes: radiometric filter-binding kinase assay, Kinase HotSpot
applied-conditions: compound 0.5 µM; ATP 10 µM
One number for each entry, in %.

# example entries with known answers
>>> quantitative_result("O=C1NC(=O)C(c2cn(CCCn3ccnc3)c3ccccc23)=C1Nc1ccccc1")
98
>>> quantitative_result("c1ccc(-c2n[nH]c3c2oc2ccccc23)cc1")
97.4

Exam item: If you can, please state the reported residual activity value of CCN(CC)CCNC(=O)c1c(C)[nH]c(/C=C2\C(=O)Nc3ccc(F)cc32)c1C .
Marked response: 102

* * *

Would you kindly list residual activity for each of these compounds?
experimental-target: CLK2 (human)
measurement-notes: radiometric filter-binding kinase assay, Kinase HotSpot
applied-conditions: compound 0.5 µM; ATP 10 µM
Give bare numbers, in %.

>>> quantitative_result("CCN(CC)CCNC(=O)c1c(C)[nH]c(/C=C2\\C(=O)Nc3ccc(Cl)cc32)c1C")
15.8
>>> quantitative_result("O=C1NC(=O)c2c1c1c3ccccc3n3c1c1c2c2ccccc2n1C1CCC3O1")
52.1
>>> quantitative_result("Nc1ccc2ncnc(NCCc3ccc(Oc4ccccc4)cc3)c2c1")
83
>>> quantitative_result("CO[C@H]1CC2CC[C@@H](C)[C@@](O)(O2)C(=O)C(=O)N2CCCC[C@H]2C(=O)OC([C@H](C)C[C@@H]2CC[C@@H](O)[C@H](OC)C2)CC(=O)[C@H](C)/C=C(\\C)[C@@H](O)[C@@H](OC)C(=O)[C@H](C)C[C@H](C)/C=C/C=C/C=C/1C (stereo partly specified)")
102
>>> quantitative_result("CC#CC(=O)Nc1cc2c(Nc3ccc(F)c(Cl)c3)ncnc2cn1")
100

Consider the following items and state reported residual activity for each.
1. Cc1ccc(NC2=CC(=O)c3sc(C)nc3C2=O)cc1
2. Nc1ncnc2c1c(-c1ccc(Oc3ccccc3)cc1)cn2C1CCCC1
3. CCN(CC)CCNC(=O)c1c(C)[nH]c(/C=C2\C(=O)Nc3ccc(F)cc32)c1C
4. O=C1NC(=O)/C(=C/c2ccc3c(c2)OC(F)(F)O3)S1
5. Cc1ccc(Nc2nccc(N(C)c3ccc4c(C)n(C)nc4c3)n2)cc1S(N)(=O)=O

Marked response:
[83.6, 95.2, 13.6, 96.6, 90.9]

Exam item: If you can, please state the reported residual activity value of O=C1Nc2ccc(Cl)cc2/C1=C/c1cc(Cl)c(O)c(Cl)c1 .
Marked response: 95.5

* * *

experimental-target: DYRK2 (human) (UniProt Q92630)
Sequence (Q92630 whole entry, looked up): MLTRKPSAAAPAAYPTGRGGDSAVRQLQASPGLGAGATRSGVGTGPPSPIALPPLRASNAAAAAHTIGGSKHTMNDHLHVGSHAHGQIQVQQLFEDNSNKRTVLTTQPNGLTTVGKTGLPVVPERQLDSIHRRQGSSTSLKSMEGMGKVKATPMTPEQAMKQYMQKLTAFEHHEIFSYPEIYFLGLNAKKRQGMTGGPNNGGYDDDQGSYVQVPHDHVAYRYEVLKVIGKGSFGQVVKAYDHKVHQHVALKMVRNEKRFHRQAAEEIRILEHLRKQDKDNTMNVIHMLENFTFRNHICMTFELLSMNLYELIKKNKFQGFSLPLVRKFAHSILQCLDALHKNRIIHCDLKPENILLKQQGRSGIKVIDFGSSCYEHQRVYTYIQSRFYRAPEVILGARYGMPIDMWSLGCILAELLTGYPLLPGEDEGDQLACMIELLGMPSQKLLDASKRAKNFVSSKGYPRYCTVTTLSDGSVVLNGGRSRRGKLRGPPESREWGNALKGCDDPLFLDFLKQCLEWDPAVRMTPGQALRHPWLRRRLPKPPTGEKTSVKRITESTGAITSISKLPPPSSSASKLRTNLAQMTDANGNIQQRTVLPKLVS
measurement-notes: radiometric filter-binding kinase assay, Kinase HotSpot
applied-conditions: compound 0.5 µM; ATP 10 µM
measurement-type: residual activity (%)
Give bare numbers, in %.

# example entries with known answers
>>> quantitative_result("COc1cc2ncnc(Nc3cccc(Cl)c3)c2cc1OC")
84.6
>>> quantitative_result("c1ccc(-c2n[nH]c3c2oc2ccccc23)cc1")
95.4
>>> quantitative_result("O=C1NC(=O)/C(=C/c2ccc3c(c2)OC(F)(F)O3)S1")
98.6

Consider the following items and state reported residual activity for each.
1. O=S(=O)(c1cccc2cnccc12)N1CCCNCC1
2. CCN(CC)CCNC(=O)c1c(C)[nH]c(/C=C2\C(=O)Nc3ccc(Cl)cc32)c1C
3. Nc1ncnc2[nH]nc(Nc3ccc(F)cc3)c12
4. N#CC(C#N)=C(N)/C(C#N)=C/c1ccc(O)cc1

Marked response:
[97.9, 82.7, 90.6, 117]
